Where these numbers come from: patent US20050112126A1

biological target: T1, VEGF (human, UniProt P15692-4 27-191, limits assumed); assay: competitive phage-ELISA, relative to pY0192
T1 construct: Biotinylated in the KDR-IgG ELISA, amine-coupled to the chip in BIAcore; also called biotinylated VEGF; vascular endothelial growth factor
T1 sequence (P15692 other isoform, or with tags, fused parts or gaps limits assumed): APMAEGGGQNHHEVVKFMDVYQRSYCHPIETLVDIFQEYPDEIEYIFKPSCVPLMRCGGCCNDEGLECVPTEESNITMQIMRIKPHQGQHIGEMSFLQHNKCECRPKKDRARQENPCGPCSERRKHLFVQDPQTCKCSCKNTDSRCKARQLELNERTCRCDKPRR
Parameter IC50 (mut)/IC50 (wt): see the listing below.
# number then unit; no other words

>>> measured_value("pY0192 VH H107A (Fab, V domains shown, Ala-scan variant of pY0192; Fab on phage) VH: EVQLVESGGGLVQPGGSLRLSCAASGYTFTNYGINWVRQAPGKGLEWVGWINTYTGEPTYAADFKRRFTFSLDTSKSTAYLQMNSLRAEDTAVYYCAKYPHYYGSSAWYFDVWGQGTL VL: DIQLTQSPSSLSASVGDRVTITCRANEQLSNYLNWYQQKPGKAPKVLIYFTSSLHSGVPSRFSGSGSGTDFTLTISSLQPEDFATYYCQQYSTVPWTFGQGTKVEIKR")
"2 ratio"

State the recorded IC50 (mut)/IC50 (wt) for this entry: pY0192 VH A61S (Fab, V domains shown, Ala-scan variant of pY0192; Fab on phage) VH: EVQLVESGGGLVQPGGSLRLSCAASGYTFTNYGINWVRQAPGKGLEWVGWINTYTGEPTYSADFKRRFTFSLDTSKSTAYLQMNSLRAEDTAVYYCAKYPHYYGSSHWYFDVWGQGTL VL: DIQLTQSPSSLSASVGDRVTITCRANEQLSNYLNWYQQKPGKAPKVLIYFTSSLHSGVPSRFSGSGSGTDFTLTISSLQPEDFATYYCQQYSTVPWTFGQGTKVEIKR
1 ratio
